Items are presented alongside their recorded percentage damage caused to the plant, PRE Application ECHCG.
tested on: Echinochloa crus-galli (ECHCG); experiment: Pre-emergence herbicidal glasshouse test, ECHCG; format: in vivo; conditions: 125 g/h, evaluated after 13 days, five-point scale

# compound, target.desc, value.observed
rows = [
    ("COC(=O)N(C)c1c(OC(F)(F)F)ccc(C(=O)Nc2nnnn2C)c1Cl [Compound 1.029]", "Echinochloa crus-galli (ECHCG)", "5 (5=80-100%)"),
    ("Cn1nnnc1NC(=O)c1ccc(OC(F)(F)F)c(NC(=O)OCCS(C)(=O)=O)c1Cl [Compound 1.013]", "Echinochloa crus-galli (ECHCG)", "2 (2=20-39%)"),
    ("COCCCOC(=O)Nc1c(OC(F)F)ccc(C(=O)Nc2nnnn2C)c1Cl [Compound 1.022]", "Echinochloa crus-galli (ECHCG)", "4 (4=60-79%)"),
    ("CC(=O)N1CCC(OC(=O)Nc2c(OC(F)F)ccc(C(=O)Nc3nnnn3C)c2Cl)CC1 [Compound 1.023]", "Echinochloa crus-galli (ECHCG)", "1 (1=0-19%)"),
    ("CCOC(=O)N(C)c1c(OC(F)F)ccc(C(=O)Nc2nnnn2C)c1Cl [Compound 1.041]", "Echinochloa crus-galli (ECHCG)", "5 (5=80-100%)"),
]

Find the measured percentage damage caused to the plant, PRE Application ECHCG of CCN(C(=O)OC)c1c(OC(F)F)ccc(C(=O)Nc2nnnn2C)c1Cl [Compound 1.043] and report it. 5 (5=80-100%)

Find the measured percentage damage caused to the plant, PRE Application ECHCG of COC(=O)N(C)c1c(OC(F)F)ccc(C(=O)Nc2nnnn2C)c1Cl [Compound 1.042] and report it. 5 (5=80-100%)

Find the measured percentage damage caused to the plant, PRE Application ECHCG of CCn1nnnc1NC(=O)c1ccc(OC(F)(F)F)c(NC(=O)OC)c1Cl [Compound 1.003] and report it. 5 (5=80-100%)

Find the measured percentage damage caused to the plant, PRE Application ECHCG of COC(=O)Nc1c(OC(F)(F)F)ccc(C(=O)Nc2nnnn2C)c1Cl [Compound 1.001] and report it. 5 (5=80-100%)

Find the measured percentage damage caused to the plant, PRE Application ECHCG of CCOC(=O)Nc1c(OC(F)(F)F)ccc(C(=O)Nc2nnnn2CC)c1Cl [Compound 1.004] and report it. 5 (5=80-100%)

###

Items are presented alongside their recorded percentage damage caused to the plant, PRE Application IPOHE.
system: Ipomoea hederacea (IPOHE); assay: Pre-emergence herbicidal glasshouse test, IPOHE; assay type: in vivo; conditions: 125 g/h, evaluated after 13 days, five-point scale

// worked examples, percentage damage caused to the plant, PRE Application IPOHE included
# chemical.structure, target.desc, value.observed
measured = [
    ("CCn1nnnc1NC(=O)c1ccc(OC(F)(F)F)c(NC(=O)OC)c1Cl", "Ipomoea hederacea (IPOHE)", "4 (4=60-79%)"),
    ("CCOC(=O)Nc1c(OC(F)(F)F)ccc(C(=O)Nc2nnnn2C)c1Cl", "Ipomoea hederacea (IPOHE)", "5 (5=80-100%)"),
    ("CCCOC(=O)Nc1c(OC(F)(F)F)ccc(C(=O)Nc2nnnn2C)c1Cl", "Ipomoea hederacea (IPOHE)", "2 (2=20-39%)"),
    ("CCOC(=O)Nc1c(OC(F)F)ccc(C(=O)Nc2nnnn2CC)c1Cl", "Ipomoea hederacea (IPOHE)", "4 (4=60-79%)"),
    ("COCCOC(=O)Nc1c(OC(F)F)ccc(C(=O)Nc2nnnn2C)c1Cl", "Ipomoea hederacea (IPOHE)", "2 (2=20-39%)"),
]

Find the measured percentage damage caused to the plant, PRE Application IPOHE of "CCOC(=O)Nc1c(OC(F)F)ccc(C(=O)Nc2nnnn2C)c1Cl" and report it. 4 (4=60-79%)

Find the measured percentage damage caused to the plant, PRE Application IPOHE of "CC(=O)N1CCC(OC(=O)Nc2c(OC(F)F)ccc(C(=O)Nc3nnnn3C)c2Cl)CC1" and report it. 2 (2=20-39%)

Find the measured percentage damage caused to the plant, PRE Application IPOHE of "COCCCOC(=O)Nc1c(OC(F)F)ccc(C(=O)Nc2nnnn2C)c1Cl" and report it. 4 (4=60-79%)

Find the measured percentage damage caused to the plant, PRE Application IPOHE of "CCOC(=O)Nc1c(OC(F)(F)F)ccc(C(=O)Nc2nnnn2C)c1C" and report it. 5 (5=80-100%)

Find the measured percentage damage caused to the plant, PRE Application IPOHE of "CC(=O)N1CCC(OC(=O)Nc2c(OC(F)(F)F)ccc(C(=O)Nc3nnnn3C)c2Cl)CC1" and report it. 2 (2=20-39%)

Find the measured percentage damage caused to the plant, PRE Application IPOHE of "Cn1nnnc1NC(=O)c1ccc(OC(F)F)c(NC(=O)OC2CCOCC2)c1Cl" and report it. 4 (4=60-79%)

Find the measured percentage damage caused to the plant, PRE Application IPOHE of "CCN(C(=O)OC)c1c(OC(F)(F)F)ccc(C(=O)Nc2nnnn2C)c1Cl" and report it. 4 (4=60-79%)

Find the measured percentage damage caused to the plant, PRE Application IPOHE of "Cn1nnnc1NC(=O)c1ccc(OC(F)(F)F)c(NC(=O)OCCC#N)c1Cl" and report it. 4 (4=60-79%)

Find the measured percentage damage caused to the plant, PRE Application IPOHE of "Cn1nnnc1NC(=O)c1ccc(OC(F)F)c(NC(=O)OCC(F)F)c1Cl" and report it. 3 (3=40-59%)

Find the measured percentage damage caused to the plant, PRE Application IPOHE of "COCCOC(=O)Nc1c(OC(F)(F)F)ccc(C(=O)Nc2nnnn2C)c1Cl" and report it. 4 (4=60-79%)

Find the measured percentage damage caused to the plant, PRE Application IPOHE of "Cn1nnnc1NC(=O)c1ccc(OC(F)F)c(NC(=O)OC2COC2)c1Cl" and report it. 4 (4=60-79%)

Find the measured percentage damage caused to the plant, PRE Application IPOHE of "Cn1nnnc1NC(=O)c1ccc(OC(F)(F)F)c(NC(=O)OCC(F)F)c1Cl" and report it. 4 (4=60-79%)

Find the measured percentage damage caused to the plant, PRE Application IPOHE of "CCn1nnnc1NC(=O)c1ccc(OC(F)F)c(NC(=O)OC)c1Cl" and report it. 4 (4=60-79%)

The measured values listed here are drawn from patent US12637437B2.
